# measured.on: Sodium-dependent dopamine transporter (Homo sapiens, UniProt Q01959)
# Sequence (Q01959 whole entry): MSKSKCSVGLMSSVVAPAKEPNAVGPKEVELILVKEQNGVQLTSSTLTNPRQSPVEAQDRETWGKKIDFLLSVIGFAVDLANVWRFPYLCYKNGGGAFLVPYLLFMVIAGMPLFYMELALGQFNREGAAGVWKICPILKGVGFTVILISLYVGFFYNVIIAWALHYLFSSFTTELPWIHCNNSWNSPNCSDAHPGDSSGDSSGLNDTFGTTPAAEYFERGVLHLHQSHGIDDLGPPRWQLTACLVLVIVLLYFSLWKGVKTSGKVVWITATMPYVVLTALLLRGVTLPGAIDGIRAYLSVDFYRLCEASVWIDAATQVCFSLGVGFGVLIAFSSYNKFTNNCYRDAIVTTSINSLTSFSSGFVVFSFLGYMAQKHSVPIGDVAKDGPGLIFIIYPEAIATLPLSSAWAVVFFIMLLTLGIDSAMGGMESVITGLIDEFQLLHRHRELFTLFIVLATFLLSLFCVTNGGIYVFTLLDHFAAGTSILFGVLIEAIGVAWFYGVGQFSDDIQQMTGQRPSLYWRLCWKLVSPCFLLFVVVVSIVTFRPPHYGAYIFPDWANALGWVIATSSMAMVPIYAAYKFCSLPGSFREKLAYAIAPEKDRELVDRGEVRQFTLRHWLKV
measurement.kind: pIC50
Lab note: report pIC50 as minus log10 of the concentration in molar units, number only.

Reading of pIC50 for O[C@]1(C(F)(F)F)CCCC[C@H]1Nc1ccc(F)cc1 with Sodium-dependent dopamine transporter (Homo sapiens, UniProt Q01959): 5.92

###

# measured.on: Estrogen receptor (Homo sapiens, UniProt P03372)
# Sequence (P03372 whole entry): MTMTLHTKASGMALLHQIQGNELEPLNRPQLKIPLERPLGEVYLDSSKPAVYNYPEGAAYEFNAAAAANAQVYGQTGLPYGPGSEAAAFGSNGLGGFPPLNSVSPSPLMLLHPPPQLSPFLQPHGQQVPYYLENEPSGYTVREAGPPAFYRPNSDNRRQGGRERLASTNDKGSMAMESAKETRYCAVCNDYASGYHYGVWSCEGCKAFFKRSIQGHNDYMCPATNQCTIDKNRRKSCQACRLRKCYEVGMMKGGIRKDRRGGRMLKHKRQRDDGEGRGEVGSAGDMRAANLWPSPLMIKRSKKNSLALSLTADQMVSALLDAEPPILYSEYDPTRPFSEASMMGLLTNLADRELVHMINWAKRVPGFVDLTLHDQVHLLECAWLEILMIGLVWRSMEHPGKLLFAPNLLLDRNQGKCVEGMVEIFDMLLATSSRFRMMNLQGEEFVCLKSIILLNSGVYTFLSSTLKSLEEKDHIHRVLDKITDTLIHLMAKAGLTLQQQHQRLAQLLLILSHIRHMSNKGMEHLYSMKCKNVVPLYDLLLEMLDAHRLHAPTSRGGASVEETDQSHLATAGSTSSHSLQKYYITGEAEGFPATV
measurement.kind: pIC50
Lab note: report pIC50 as minus log10 of the concentration in molar units, number only.

Reading of pIC50 for O[C@]1(C(F)(F)F)CCCC[C@H]1Nc1ccc(F)cc1 with Estrogen receptor (Homo sapiens, UniProt P03372): 5.60
